tested on: HBV; experiment: Anti-HBV activity in transfected 2.2.15 cells (HBV DNA replication intermediates, blot hybridization); type: cell-based, hepatitis B virus; details: Hepatitis B virus, read-out: EC50 (μM) R.I.
Readout name: EC50

>  <Compound>
[N-]=[N+]=N[C@H]1C[C@H](CO)O[C@@H]1n1cc(F)c(N)nc1=O [L-2-azido-5-FddC]

>  <Readout name>
EC50

>  <Measured value>
0.1 µM

$$$$

###

test system: HBV; assay: Anti-HBV activity in transfected 2.2.15 cells (HBV DNA replication intermediates, blot hybridization); assay type: cell-based, hepatitis B virus; conditions: Hepatitis B virus; Transfected 2.2.15 cells; HBV DNA replication intermediates (R.I.); read-out: EC50 (μM) R.I.

>  <Compound>
[N-]=[N+]=NC1C[C@@H](n2cc(F)c(N)nc2=O)O[C@H]1CO (stereo partly shown)

>  <EC50 [µM]>
0.01

$$$$

###

tested on: HBV; assay: Anti-HBV activity in transfected 2.2.15 cells (HBV DNA replication intermediates, blot hybridization); format: cell-based, hepatitis B virus; conditions: Transfected 2.2.15 cells; HBV DNA replication intermediates (R.I.); read-out: EC50 (μM) R.I.
Readout name: EC50 (µM)

>  <Compound>
Nc1nc(=O)n([C@H]2CC[C@@H](CO)O2)cc1F [Compound L-5-FddC]

>  <Measured value>
0.05

$$$$
>  <Compound>
Nc1ccn([C@@H]2CS[C@H](CO)O2)c(=O)n1 (single isomer, unassigned) [Lamivudine (3TC)]

>  <Measured value>
0.03

$$$$

Reference for the values: patent US6458773B1
